Every entry's value here was drawn from PubChem BioAssay AID588383.

# SYSTEM_NAME: GTPase HRas (Homo sapiens) (UniProt P01112)
# Sequence (P01112 whole entry, looked up): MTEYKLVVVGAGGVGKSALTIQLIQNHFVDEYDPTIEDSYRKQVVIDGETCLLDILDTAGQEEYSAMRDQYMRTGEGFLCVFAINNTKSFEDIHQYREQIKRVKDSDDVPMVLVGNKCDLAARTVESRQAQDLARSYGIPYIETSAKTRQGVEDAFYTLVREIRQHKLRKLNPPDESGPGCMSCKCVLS
# ASSAY_INFO: wild-type Ras fluorescent GTP binding inhibition – biochemical, multiplex bead flow cytometry, round 1, selectivity assay for Cdc42 probe extension project, SAR follow-up (AID 588383)
# REPORTED_CONDITIONS: GST-Ras wt beads, Bodipy-FL-GTP binding
MEASURED_ATTRIBUTE: EC50

**Q:** Given the entry CC1(C)Cc2c(sc(NC(=S)NC(=O)c3ccccc3)c2C(=O)O)CO1 , report its measured EC50.
**A:** 0.078 µM
